Every entry's value here was drawn from patent US20260234242A1.

Known Max MFI of a selection of binders
Molecular target: T1, human CDH6 on tumor cells (OVCAR3 cells, PA-1 cells) (human, UniProt P55285 54-790)
T1 sequence: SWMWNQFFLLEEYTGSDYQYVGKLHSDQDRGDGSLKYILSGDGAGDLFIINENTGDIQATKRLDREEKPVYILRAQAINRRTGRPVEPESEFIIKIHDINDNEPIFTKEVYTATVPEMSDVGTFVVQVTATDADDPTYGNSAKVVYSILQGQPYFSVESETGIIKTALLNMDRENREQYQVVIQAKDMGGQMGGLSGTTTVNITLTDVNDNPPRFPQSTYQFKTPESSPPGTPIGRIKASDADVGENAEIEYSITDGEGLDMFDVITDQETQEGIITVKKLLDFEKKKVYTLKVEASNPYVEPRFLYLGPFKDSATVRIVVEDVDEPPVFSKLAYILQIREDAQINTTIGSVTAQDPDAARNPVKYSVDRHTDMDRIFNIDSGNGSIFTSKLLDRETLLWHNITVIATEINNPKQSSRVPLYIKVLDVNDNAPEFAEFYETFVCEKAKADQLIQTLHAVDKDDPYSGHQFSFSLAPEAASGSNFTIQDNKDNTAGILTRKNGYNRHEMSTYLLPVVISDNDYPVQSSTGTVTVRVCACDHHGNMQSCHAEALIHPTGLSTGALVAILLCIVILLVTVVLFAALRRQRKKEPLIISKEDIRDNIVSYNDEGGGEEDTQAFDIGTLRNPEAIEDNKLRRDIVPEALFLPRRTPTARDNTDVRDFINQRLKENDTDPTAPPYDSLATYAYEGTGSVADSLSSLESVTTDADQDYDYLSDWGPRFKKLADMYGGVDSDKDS
Assay: FACS, OVCAR3 cells
Number in MFI, nothing else.

binder	Max MFI (MFI)
hCDH6-6-H3L4 (antibody, V domains shown, Humanized) VH: EVQLVQSGAEVKKPGASVKVSCKASGYTFTDYYMAWVRQAPRQGLEWMGYIFPNSGGTDYSQKFKGRVTMTVDKSTSTVYMELSSLRSEDTAVYYCARELGADYGDYYAMDHWGQGTTVTVSS VL: DIQMTQSPSSLSASVGDRVTITCRASENIDSYLAWYQQKPGKSPKLLVYSATLLADGVPSRFSGSGSGTDYTLTISSLQPEDFARYYCQHYYRTPPTFGQGTKLEIK	14500

Okay, next one:
Prompt line: Name the recorded Max MFI for hCDH6-6-H3L2 (antibody, V domains shown, Humanized) VH: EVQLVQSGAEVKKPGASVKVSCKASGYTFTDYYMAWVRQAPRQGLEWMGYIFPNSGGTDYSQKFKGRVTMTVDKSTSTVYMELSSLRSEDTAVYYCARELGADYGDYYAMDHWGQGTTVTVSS VL: DIQMTQSPSSLSASVGDRVTITCRASENIDSYLAWYQQKPGKSPKLLVYSATLLADGVPSRFSGSGSGTDYTLTISSLQPEDFATYYCQHYYRTPPTFGQGTKLEIK .
Response line: 14600
